# maps each entry to its GI50
tested on: SF-539; assay: NCI tumour cell line growth inhibition, 48 h
Activity calls are given as the source filed them. Rule as the data show it: active = GI50 up to about 1.1 µM and inactive = higher.

Worked set:
COC(=O)c1ccc2c(c1)CC1(C2)Cc2cc3c(cc2C1)CCC3
> 100 µM (inactive)
c1ccc2cc(CNCCOCCOCCNCc3ccc4ccccc4c3)ccc2c1
1.85 µM (inactive)
Cc1[nH]c2ncn(/N=C/c3ccccc3)c(=N)c2c1Cc1ccccc1
38.5 µM (inactive)

Let's switch to this molecule now.
Lab note: record GI50 of CC(O)C1OC(O)C2OC(C)(C)OC12 (stereo not given) tested on SF-539.
> 100 µM (inactive)

###

Parameter: GI50. Scope: all listed entries.
system: CCRF-CEM; assay: NCI tumour cell line growth inhibition, 48 h
Active and inactive are the calls of the source. Cut-off read from the data, not from the text of the source: active = GI50 up to about 1.1 µM and inactive = higher.

Example cases with answers are listed next.
COc1ccc(C(Cc2ccccc2)C2NC(=S)NC2=O)cc1 (configuration not stated)
> 25 µM (inactive)
C/C(=N\NC(=O)CC#N)c1c(O)cc(C)oc1=O
> 100 µM (inactive)
O=c1cc2n(c(=O)[nH]1)C1OC(C(O)C1O)[C@@H]2CCO (some centres not stated)
> 100 µM (inactive)
COC(=O)c1ccc2c(c1)CC1(C2)Cc2cc3c(cc2C1)CCC3
> 100 µM (inactive)
O=[N+]([O-])/C(Cl)=C(\NCCN/C(C(Cl)=C(Cl)Cl)=C(/Cl)[N+](=O)[O-])C(Cl)=C(Cl)Cl
27 µM (inactive)
Cc1c2ccncc2c(C)c2c1[nH]c1ccc(OC(C)(C)C)cc12
2.07 µM (inactive)

Provide measured GI50 value, entry: CCN(CC)Cc1ccc(Nc2c3ccccc3nc3ccccc23)cc1
1.82 µM (inactive)

Indicate its recorded GI50; the compound in question is Cc1c(C)c(C)c(CSC(=N)N)c(C)c1C
15.5 µM (inactive)

Check the records and state GI50 for COC(=O)CSc1nc2[nH]c(SC)c(C(N)=O)c2c(=O)n1-c1ccccc1
> 10 µM (inactive)

Return GI50 for the following compound: O[C@]12c3ccccc3C1CCCCC2N1CCOCC1 (some centres not stated)
> 100 µM (inactive)

Given the compound CCCSc1nc(-c2ccc(OC)cc2)c(C#N)c(=O)n1C1OC(COC(C)=O)C(OC(C)=O)C(OC(C)=O)C1OC(C)=O (configuration not stated) , write its reported GI50.
> 100 µM (inactive)

Look up and report measured GI50 for this entry: CC(C)(C)N(Cc1ccc2c(c1)OCO2)C(=O)/C=C\Sc1ccccc1
43.5 µM (inactive)
